# Tested on: Plasmodium berghei
# measurement_protocol: Luciferase/luciferin-expressing antifolate-resistant parasites were used to infect a culture of HepG2 cells that were pre-incubated with compounds. Infected hepatocytes emit light due to the luciferase reaction. Assay results are presented as the percent inhibition of light emission compared to control. […]
# Format: functional
# condition_summary: sporozoite, PBLUC_HILL_SLOPE 0.69, PBLUC_R_SQUARED 0.715, read-out: LUCIFERASE INFECTION ASSAY - IC50
attribute_measured: pIC50
Quick note: pIC50 means taking -log10 of the concentration in moles per liter.

q: Request body: readout pIC50, system Plasmodium berghei, query CC(C)(C)c1ccc(C(=O)Nc2cc(Cl)ccc2OC(=O)c2ccc(C(C)(C)C)cc2)cc1 . Return the value.
a: 6.26

###

# Test system: Plasmodium berghei
# measurement_protocol: Luciferase/luciferin-expressing antifolate-resistant parasites were used to infect a culture of HepG2 cells that were pre-incubated with compounds. Infected hepatocytes emit light due to the luciferase reaction. Assay results are presented as the percent inhibition of light emission compared to control. […]
# Format: functional
# condition_summary: sporozoite, HEPG2TOX_HILL_SLOPE 0.555, HEPG2TOX_R_SQUARED 0.409, PBLUC_HILL_SLOPE 0.699, PBLUC_R_SQUARED 0.384, read-out: LUCIFERASE INFECTION ASSAY - IC50
attribute_measured: IC50 (µM)
# number only, unit µM dropped from output

q: Request body: readout IC50, system Plasmodium berghei, query CN1c2ccccc2C(C)(C)C12C=Cc1c(c(Br)cc3oc4c(c13)CCCC4)O2 (stereo unspecified) . Return the value.
a: 4.21

###

# System: Plasmodium berghei
# measurement_protocol: Luciferase/luciferin-expressing antifolate-resistant parasites were used to infect a culture of HepG2 cells that were pre-incubated with compounds. Infected hepatocytes emit light due to the luciferase reaction. Assay results are presented as the percent inhibition of light emission compared to control. […]
# Format: functional
# condition_summary: sporozoite, FFLUC_HILL_SLOPE 0.658, FFLUC_R_SQUARED 0.126, HEPG2TOX_HILL_SLOPE 2.14, HEPG2TOX_R_SQUARED 0.958, PBLUC_HILL_SLOPE 24.1, PBLUC_R_SQUARED 0.279, read-out: LUCIFERASE INFECTION ASSAY - IC50
attribute_measured: pIC50
Quick note: pIC50 means taking -log10 of the concentration in moles per liter.

q: For the compound C(=N\Nc1ncnc2sc(-c3ccccc3)cc12)/c1sc(N2CCCCC2)nc1-c1cccs1 , what pIC50 is on record?
a: 5.95

###

# Tested on: Plasmodium berghei
# measurement_protocol: Luciferase/luciferin-expressing antifolate-resistant parasites were used to infect a culture of HepG2 cells that were pre-incubated with compounds. Infected hepatocytes emit light due to the luciferase reaction. Assay results are presented as the percent inhibition of light emission compared to control. […]
# Assay type: functional
# condition_summary: sporozoite, FFLUC_HILL_SLOPE 16.1, FFLUC_R_SQUARED 0.161, read-out: LUCIFERASE INFECTION ASSAY - IC50
attribute_measured: IC50

q: For the compound COC(=O)c1c(C)[nH]c(C(=O)C(C)Sc2nnc(Cc3cccc4ccccc34)n2C2CCCCC2)c1C (stereo unspecified) , what IC50 is on record?
a: > 10 µM

###

# System: Plasmodium berghei
# measurement_protocol: Luciferase/luciferin-expressing antifolate-resistant parasites were used to infect a culture of HepG2 cells that were pre-incubated with compounds. Infected hepatocytes emit light due to the luciferase reaction. Assay results are presented as the percent inhibition of light emission compared to control. […]
# Assay type: functional
# condition_summary: sporozoite, FFLUC_HILL_SLOPE 2.79, FFLUC_R_SQUARED 0.544, read-out: LUCIFERASE INFECTION ASSAY - IC50
pIC50: −log10 of the molar value.
attribute_measured: pIC50

q: For the compound Cc1ccc(NC(=O)NC(=O)CSc2nccn2Cc2ccccc2)c(C)c1 , what pIC50 is on record?
a: < 5.00
